target: T cell α4β7 integrin (Homo sapiens, UniProt P13612+P26010); construct: Blood samples were obtained from healthy volunteers' blood donation; endogenous in cells; host or cells: CD4-positive T cells in whole blood of healthy human volunteers; assay: Human MAdCAM-1/α4β7 integrin binding inhibitory activity evaluation test in whole human blood; format: cell-based; conditions: recombinant human MAdCAM-1/Fc, CD4 positive cells, flow cytometry
Sequence (P13612 34-1032): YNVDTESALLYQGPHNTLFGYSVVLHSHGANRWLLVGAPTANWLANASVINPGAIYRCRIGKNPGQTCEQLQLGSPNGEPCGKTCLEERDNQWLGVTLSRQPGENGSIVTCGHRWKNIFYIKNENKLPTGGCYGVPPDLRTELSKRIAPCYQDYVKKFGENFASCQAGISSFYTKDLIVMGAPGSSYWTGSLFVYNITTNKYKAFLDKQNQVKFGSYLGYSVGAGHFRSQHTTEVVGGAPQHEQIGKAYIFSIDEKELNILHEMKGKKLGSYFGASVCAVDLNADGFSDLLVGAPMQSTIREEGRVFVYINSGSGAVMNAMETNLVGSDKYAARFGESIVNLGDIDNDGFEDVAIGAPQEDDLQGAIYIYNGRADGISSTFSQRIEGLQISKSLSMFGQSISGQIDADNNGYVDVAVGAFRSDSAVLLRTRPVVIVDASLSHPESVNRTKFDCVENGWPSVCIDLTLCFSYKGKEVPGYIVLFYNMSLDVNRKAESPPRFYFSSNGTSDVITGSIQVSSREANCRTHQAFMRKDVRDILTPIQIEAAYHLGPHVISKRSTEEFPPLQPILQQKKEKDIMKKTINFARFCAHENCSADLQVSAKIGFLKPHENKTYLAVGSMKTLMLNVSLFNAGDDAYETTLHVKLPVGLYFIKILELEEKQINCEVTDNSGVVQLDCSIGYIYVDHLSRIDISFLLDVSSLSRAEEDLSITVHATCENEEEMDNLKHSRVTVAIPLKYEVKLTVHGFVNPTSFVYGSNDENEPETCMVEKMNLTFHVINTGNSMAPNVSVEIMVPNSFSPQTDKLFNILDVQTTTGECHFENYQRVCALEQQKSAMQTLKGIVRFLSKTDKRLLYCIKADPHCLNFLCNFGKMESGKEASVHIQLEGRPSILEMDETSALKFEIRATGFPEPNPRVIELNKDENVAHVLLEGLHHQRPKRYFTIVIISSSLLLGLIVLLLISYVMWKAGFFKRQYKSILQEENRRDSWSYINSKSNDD
Sequence (P26010 20-798): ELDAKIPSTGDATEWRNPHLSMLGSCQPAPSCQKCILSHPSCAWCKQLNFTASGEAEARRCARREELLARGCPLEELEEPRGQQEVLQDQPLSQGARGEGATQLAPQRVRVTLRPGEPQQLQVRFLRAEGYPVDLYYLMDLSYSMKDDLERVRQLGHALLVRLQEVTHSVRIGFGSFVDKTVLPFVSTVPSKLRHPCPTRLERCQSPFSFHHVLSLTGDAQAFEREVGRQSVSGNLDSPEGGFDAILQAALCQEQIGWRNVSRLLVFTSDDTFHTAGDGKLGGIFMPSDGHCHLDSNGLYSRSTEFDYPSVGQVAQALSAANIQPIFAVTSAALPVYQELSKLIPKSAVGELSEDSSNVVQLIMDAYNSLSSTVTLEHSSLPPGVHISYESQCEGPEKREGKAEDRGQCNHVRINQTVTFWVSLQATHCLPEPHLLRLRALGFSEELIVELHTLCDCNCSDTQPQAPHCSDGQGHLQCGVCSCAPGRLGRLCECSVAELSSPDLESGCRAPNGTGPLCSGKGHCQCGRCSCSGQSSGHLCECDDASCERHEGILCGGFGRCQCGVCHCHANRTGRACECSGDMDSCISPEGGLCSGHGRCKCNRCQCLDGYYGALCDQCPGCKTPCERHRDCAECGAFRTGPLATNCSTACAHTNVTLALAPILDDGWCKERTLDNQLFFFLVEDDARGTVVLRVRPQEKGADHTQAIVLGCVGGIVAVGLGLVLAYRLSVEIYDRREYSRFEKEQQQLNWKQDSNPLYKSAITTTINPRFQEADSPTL
pIC50: −log10 of the molar value.
EXPERIMENTAL_ENDPOINT: pIC50

Field: example entries. Status: answers known.
Cc1cn(C)c(=O)n(-c2ccc(C[C@H](NC(=O)c3cc(F)c(NS(=O)(=O)c4ccc(NC(=O)C(C)(C)CO)cc4)cc3F)C(=O)O)cn2)c1=O	8.32
CN1CCC(=O)N(c2ccc(C[C@H](NC(=O)c3cc(F)c(NS(=O)(=O)c4ccc(NC(=O)C(C)(C)C)cc4)cc3F)C(=O)O)cn2)C1=O	8.25
Cn1cc(C(F)(F)F)c(=O)n(-c2ccc(C[C@H](NC(=O)c3cc(F)c(NS(=O)(=O)c4ccc(NC(=O)C(C)(C)C)cc4)cc3F)C(=O)O)cn2)c1=O	8.24

I: Cc1cn(C)c(=O)n(-c2ccc(C[C@H](NC(=O)c3cc(F)c(NS(=O)(=O)c4ccc(NC(=O)C5(C(F)(F)F)CC5)cc4)cc3F)C(=O)O)cn2)c1=O
II: Cc1cn(C)c(=O)n(-c2ccc(C[C@H](NC(=O)c3cc(F)c(NS(=O)(=O)c4ccc(NC(=O)C(C)(C)C)cc4)cc3F)C(=O)O)cn2)c1=O
**Query** Consider entries I and II . Which has the numerically lower pIC50? Refer to your chosen item by its label in the answer.
**Result** I

----------
Biological target: T cell α4β7 integrin (Homo sapiens, UniProt P13612+P26010)
Construct: Blood samples were obtained from healthy volunteers' blood donation; endogenous in cells; host or cells: CD4-positive T cells in whole blood of healthy human volunteers
Assay: Mouse MAdCAM-1/α4β7 integrin binding inhibitory activity evaluation test in whole human blood
Assay type: cell-based
Settings: recombinant mouse MAdCAM-1/Fc, CD4 positive cells, flow cytometry
Protocol: (4) Mouse MAdCAM-1/α4β7 Integrin Binding Inhibitory Activity Evaluation Test in Whole Human Blood Each test substance was measured in terms of the binding inhibitory activity of T cell α4β7 integrin and MAdCAM-1 in human whole blood. Blood samples were obtained from healthy volunteers' blood donation. A 4 mM MnCl2 solution and each of dilutions of various test substances were added to human whole blood, followed by incubation for 10 minutes. […]
pIC50: −log10 of the molar value.
EXPERIMENTAL_ENDPOINT: pIC50

Cc1c(C)n(C)c(=O)n(-c2ccc(C[C@H](NC(=O)c3cc(F)c(NS(=O)(=O)c4ccc(NC(=O)C(C)(C)C)cn4)cc3F)C(=O)O)cn2)c1=O [Compound A32]	8.72

a: Cc1cn(C)c(=O)n(-c2ccc(C[C@H](NC(=O)c3cc(F)c(NS(=O)(=O)c4ccc(NC(=O)C(C)(C)C)cc4)cc3F)C(=O)O)cn2)c1=O [Compound A54]
b: Cc1cn(C)c(=O)n(-c2ccc(C[C@H](NC(=O)c3cc(F)c(NS(=O)(=O)c4ccc(NC(=O)C(C)(C)C)cc4)cc3F)C(=O)O)cc2)c1=O [Compound A37]
**Query** Consider entries a and b . Which has the numerically lower pIC50? Refer to your chosen item by its label in the answer.
**Result** b

Cited source: patent US10562898B2
